Values from patent US20220235064A1

Please provide measured cytotoxicity at 5 µM for the entries that follow.
- System: cancer cell line KM12C, in which RON is activated
- ASSAY_PROTOCOL: Cell-killing efficacy in RON-activated cancer cell line (trypan blue)
- Type: cell-based
- CONDITION_NOTES: Homo sapiens, 5 μM, 48 hours, trypan blue, n=2, read-out: Cell death (%) Cancer cell line KM12C
One number for each entry, in %.

[[record]]
compound = "COc1cc2c(Oc3ccc(NC(=O)c4c5c(cn(-c6ccc(F)cc6)c4=O)CCO5)cc3F)ccnc2cc1OCCN1CCC(F)(F)C1"
recorded_value = 47.4

[[record]]
compound = "O=C(Nc1ccc(Oc2ccnc3cc(-c4ccc(CN5CCCC(O)C5)cn4)sc23)c(F)c1)c1c2c(cn(-c3ccc(F)cc3)c1=O)CCO2 (centres unmarked)"
recorded_value = 25.9

[[record]]
compound = "COC1(C)CN(Cc2ccc(-c3cc4nccc(Oc5ccc(NC(=O)c6c7c(cn(-c8ccc(F)cc8)c6=O)CCO7)cc5F)c4s3)nc2)C1"
recorded_value = 24.2

[[record]]
compound = "COc1ccc2c(Oc3ccc(NC(=O)c4c5c(cn(-c6ccc(F)cc6)c4=O)CCO5)cc3F)ccnc2c1"
recorded_value = 18.9

[[record]]
compound = "COc1cc2c(Oc3ccc(NC(=O)c4c5c(cn(-c6ccc(F)cc6)c4=O)CCO5)cc3F)ccnc2cc1OCCN1CCC(C)(O)CC1"
recorded_value = 22.4

[[record]]
compound = "COc1cc2c(Oc3ccc(NC(=O)c4c5c(cn(-c6ccc(F)cc6)c4=O)CCO5)cc3F)ccnc2cc1OCCN1CCS(=O)(=O)CC1"
recorded_value = 40


Would you mind listing cytotoxicity at 5 µM for each of the following compounds?
1. COc1cc2c(Oc3ccc(NC(=O)c4c5c(cn(-c6ccc(F)cc6)c4=O)CCO5)cc3F)ccnc2cc1NC(=O)CN1CCOCC1
2. CCOc1ccn(-c2ccc(F)cc2)c(=O)c1C(=O)Nc1ccc(Oc2ccnc(N)c2Cl)c(F)c1 [Positive control, reference compound]

44.4
12.8

---

- System: cancer cell line SW620, in which mutated RON (Δ155) is expressed
- ASSAY_PROTOCOL: Cell-killing efficacy in RON-mutated cancer cell line SW620 (trypan blue)
- Format: cell-based
- CONDITION_NOTES: Homo sapiens, SW-620; 5 μM, 48 hours, trypan blue, n=2; read-out: Cell death (%) Cancer cell line SW620
What cytotoxicity at 5 µM was measured for each of the following?
Numbers only, in %.

[[record]]
compound = "COc1cc2c(Oc3ccc(NC(=O)c4c5c(cn(-c6ccc(F)cc6)c4=O)CCO5)cc3F)ccnc2cc1OCCN1CCC(F)(F)C1 [Example 134]"
target_or_test_system = "cancer cell line SW620, in which mutated RON (Δ155) is expressed"
property_name = "cytotoxicity at 5 µM"
recorded_value = 82.8


For every record below, what is its cytotoxicity at 5 µM?
1. COc1cc2c(Oc3ccc(NC(=O)c4c5c(cn(-c6ccc(F)cc6)c4=O)CCO5)cc3F)ccnc2cc1N [Example 181]
2. COc1cc2c(Oc3ccc(NC(=O)c4c5c(cn(-c6ccc(F)cc6)c4=O)CCO5)cc3F)ccnc2cc1OCCN1CCC(F)(F)CC1 [Example 145]
3. CN(C)C1CN(Cc2ccc(-c3cc4nccc(Oc5ccc(NC(=O)c6c7c(cn(-c8ccc(F)cc8)c6=O)CCO7)cc5F)c4s3)nc2)C1 [Example 20]
4. COC1CCN(Cc2ccc(-c3cc4nccc(Oc5ccc(NC(=O)c6c7c(cn(-c8ccc(F)cc8)c6=O)CCO7)cc5F)c4s3)nc2)CC1 [Example 31]
5. COc1cc2c(Oc3ccc(NC(=O)c4c5c(cn(-c6ccc(F)cc6)c4=O)CCO5)cc3F)ccnc2cc1NCCCN1CCOCC1 [Example 188]
6. COc1cc2c(Oc3ccc(NC(=O)c4c5c(cn(-c6ccc(F)cc6)c4=O)CCO5)cc3F)ccnc2cc1NC(C)=O [Example 184]
7. COc1cc2c(Oc3ccc(NC(=O)c4c5c(cn(-c6ccc(F)cc6)c4=O)CCO5)cc3F)ccnc2cc1NCCN1CCOCC1 [Example 187]
8. COc1cc2c(Oc3ccc(NC(=O)c4c5c(cn(-c6ccc(F)cc6)c4=O)CCO5)cc3F)ccnc2cc1OCCN1CC(F)(F)C1 [Example 124]

1: 35; 2: 87.1; 3: 91.2; 4: 47; 5: 31.6; 6: 29.8; 7: 50.5; 8: 98.7

---

- TARGET_OR_TEST_SYSTEM: RON tyrosine kinase (Homo sapiens, UniProt Q04912)
- Construct: purchased Carna Bioscience
- Sequence (Q04912 25-1400): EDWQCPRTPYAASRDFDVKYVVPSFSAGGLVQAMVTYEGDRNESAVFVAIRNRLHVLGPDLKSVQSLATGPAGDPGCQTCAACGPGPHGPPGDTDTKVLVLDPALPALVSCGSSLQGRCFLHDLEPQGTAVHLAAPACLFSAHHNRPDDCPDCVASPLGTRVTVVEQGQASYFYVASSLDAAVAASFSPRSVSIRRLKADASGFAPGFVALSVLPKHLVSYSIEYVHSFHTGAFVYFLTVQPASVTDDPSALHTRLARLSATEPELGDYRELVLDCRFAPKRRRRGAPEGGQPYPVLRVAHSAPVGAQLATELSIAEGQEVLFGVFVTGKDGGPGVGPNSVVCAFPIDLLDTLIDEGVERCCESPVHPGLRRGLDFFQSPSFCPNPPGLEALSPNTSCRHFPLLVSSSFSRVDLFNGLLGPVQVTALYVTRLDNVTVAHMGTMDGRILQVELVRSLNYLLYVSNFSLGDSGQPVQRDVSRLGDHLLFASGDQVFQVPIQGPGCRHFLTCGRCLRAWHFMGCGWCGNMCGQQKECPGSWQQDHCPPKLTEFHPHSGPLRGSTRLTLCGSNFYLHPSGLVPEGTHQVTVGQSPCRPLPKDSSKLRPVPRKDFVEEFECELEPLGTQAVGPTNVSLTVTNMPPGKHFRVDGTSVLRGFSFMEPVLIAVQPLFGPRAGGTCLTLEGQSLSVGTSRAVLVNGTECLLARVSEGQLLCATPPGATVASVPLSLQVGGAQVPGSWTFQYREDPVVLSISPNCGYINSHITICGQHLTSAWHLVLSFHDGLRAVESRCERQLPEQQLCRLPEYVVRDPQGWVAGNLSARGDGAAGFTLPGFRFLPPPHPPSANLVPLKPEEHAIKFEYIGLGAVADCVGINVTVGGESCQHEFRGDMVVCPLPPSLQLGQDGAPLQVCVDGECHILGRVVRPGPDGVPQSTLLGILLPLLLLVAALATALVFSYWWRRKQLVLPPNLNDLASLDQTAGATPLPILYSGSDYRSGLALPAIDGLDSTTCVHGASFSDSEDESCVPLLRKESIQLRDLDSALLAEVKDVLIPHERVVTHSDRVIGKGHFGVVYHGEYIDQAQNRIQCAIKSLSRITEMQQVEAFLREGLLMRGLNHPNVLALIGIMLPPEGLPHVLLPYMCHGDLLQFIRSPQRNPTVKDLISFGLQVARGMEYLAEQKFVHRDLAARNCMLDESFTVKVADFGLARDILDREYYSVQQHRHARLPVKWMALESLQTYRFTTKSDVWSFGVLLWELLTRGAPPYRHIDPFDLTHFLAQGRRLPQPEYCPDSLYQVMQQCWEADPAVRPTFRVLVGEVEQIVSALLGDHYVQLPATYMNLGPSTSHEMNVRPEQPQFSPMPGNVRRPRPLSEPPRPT
- ASSAY_PROTOCOL: Enzyme inhibitory activity against RON tyrosine kinase (TR-FRET)
- Type: biochemical
- CONDITION_NOTES: RON (Carna Bioscience)
Could you please report measured IC50 for the items listed next?
One number for each entry, in nM.

Record excerpt, results attached:
[[record]]
chemical_smiles = "Cn1cnc(-c2cc3nccc(Oc4ccc(NC(=O)c5c6c(cn(-c7ccccc7)c5=O)CCO6)cc4F)c3s2)c1"
recorded_value = 0.5

[[record]]
chemical_smiles = "COc1ccc2c(Oc3ccc(NC(=O)c4c5c(cn(-c6ccc(F)cc6)c4=O)CCO5)cc3F)ccnc2c1"
recorded_value = 1.5


Go through the list and state IC50 for each entry.
1. O=C(Nc1ccc(Oc2ccnc3cc(OCCCN4CCOCC4)ccc23)c(F)c1)c1c2c(cn(-c3ccc(F)cc3)c1=O)CCO2
2. COc1cc2nccc(Oc3ccc(NC(=O)c4c5c(cn(-c6ccc(F)cc6)c4=O)CCO5)cc3F)c2cc1C(=O)NCCN1CCOCC1

[1.99, 1.18]

---

- Tested on: cancer cell line SW620, in which mutated RON (Δ155) is expressed
- ASSAY_PROTOCOL: Cell-killing efficacy in RON-mutated cancer cell line SW620 (trypan blue)
- Type: cell-based
- CONDITION_NOTES: Homo sapiens, SW-620; 5 μM, 48 hours, trypan blue, n=2; read-out: Cell death (%) Cancer cell line SW620
The label is Criterion met for cytotoxicity at 5 µM below 80% and Criterion not met for cytotoxicity at 5 µM equal to or exceeding 80%.

Here are 5 molecules together with their reported answers.
[[record]]
molecule = "O=C(Nc1ccc(Oc2ccnc3cc(OCCCN4CCOCC4)ccc23)c(F)c1)c1c2c(cn(-c3ccc(F)cc3)c1=O)CCO2"
target_or_test_system = "cancer cell line SW620, in which mutated RON (Δ155) is expressed"
label = "Criterion not met"

[[record]]
molecule = "COc1cc2c(Oc3ccc(NC(=O)c4c5c(cn(-c6ccc(F)cc6)c4=O)CCO5)cc3F)ccnc2cc1OCCCN1CCC(F)(F)CC1"
target_or_test_system = "cancer cell line SW620, in which mutated RON (Δ155) is expressed"
label = "Criterion not met"

[[record]]
molecule = "Cn1cnc(-c2cc3nccc(Oc4ccc(NC(=O)c5c6c(cn(-c7ccc(F)cc7)c5=O)CCO6)cc4F)c3s2)c1"
target_or_test_system = "cancer cell line SW620, in which mutated RON (Δ155) is expressed"
label = "Criterion met"

[[record]]
molecule = "COc1cc2c(Oc3ccc(NC(=O)c4c5c(cn(-c6ccc(F)cc6)c4=O)CCO5)cc3F)ccnc2cc1OCCN1CC(C#N)C1"
target_or_test_system = "cancer cell line SW620, in which mutated RON (Δ155) is expressed"
label = "Criterion not met"

[[record]]
molecule = "COc1cc2c(Oc3ccc(NC(=O)c4c5c(cn(-c6ccc(F)cc6)c4=O)CCO5)cc3F)ccnc2cc1OCCCN1CC(F)(F)C1"
target_or_test_system = "cancer cell line SW620, in which mutated RON (Δ155) is expressed"
label = "Criterion met"


Now for a further molecule.
Is the reported cytotoxicity at 5 µM for CCOc1ccn(-c2ccc(F)cc2)c(=O)c1C(=O)Nc1ccc(Oc2ccnc(N)c2Cl)c(F)c1 [Positive control, reference compound] strictly below 80%?
Criterion met

---

For each entry below, report its cytotoxicity at 5 µM value.
- Tested on: cancer cell line HT29, in which mutated RON (Δ160) is expressed
- ASSAY_PROTOCOL: Cell-killing efficacy in RON-mutated cancer cell line HT29 (trypan blue)
- Format: cell-based
- CONDITION_NOTES: Homo sapiens, HT-29; 5 μM, 48 hours, trypan blue, n=2; read-out: Cell death (%) Cancer cell line HT29
Counter-ions that a name gives are not always drawn.
Answers are plain numbers, in %.

[[record]]
molecule = "COc1cc2c(Oc3ccc(NC(=O)c4c5c(cn(-c6ccc(F)cc6)c4=O)CCO5)cc3F)ccnc2cc1NC(C)=O"
target_or_test_system = "cancer cell line HT29, in which mutated RON (Δ160) is expressed"
recorded_value = 23.2

[[record]]
molecule = "COc1cc2nccc(Oc3ccc(NC(=O)c4c5c(cn(-c6ccc(F)cc6)c4=O)CCO5)cc3F)c2cc1NCCN1CCOCC1"
target_or_test_system = "cancer cell line HT29, in which mutated RON (Δ160) is expressed"
recorded_value = 32.4

[[record]]
molecule = "COc1cc2c(Oc3ccc(NC(=O)c4c5c(cn(-c6ccc(F)cc6)c4=O)CCO5)cc3F)ccnc2cc1OCCN1CC(F)(F)C1"
target_or_test_system = "cancer cell line HT29, in which mutated RON (Δ160) is expressed"
recorded_value = 62.1

[[record]]
molecule = "COc1cc2c(Oc3ccc(NC(=O)c4c5c(cn(-c6ccc(F)cc6)c4=O)CCO5)cc3F)ccnc2cc1NCCN1CCOCC1"
target_or_test_system = "cancer cell line HT29, in which mutated RON (Δ160) is expressed"
recorded_value = 34.3


Give measured cytotoxicity at 5 µM for every item shown.
1. O=C(Nc1ccc(Oc2ccnc3cc(OCCCN4CCOCC4)ccc23)c(F)c1)c1c2c(cn(-c3ccc(F)cc3)c1=O)CCO2
2. COc1cc2c(Oc3ccc(NC(=O)c4c5c(cn(-c6ccc(F)cc6)c4=O)CCO5)cc3F)ccnc2cc1N

30.9
99.1

List cytotoxicity at 5 µM for every entry below, keeping the order given.
1. Cn1cnc(-c2cc3nccc(Oc4ccc(NC(=O)c5c6c(cn(-c7ccc(F)cc7)c5=O)CCO6)cc4F)c3s2)c1
2. COc1cc2c(Oc3ccc(NC(=O)c4c5c(cn(-c6ccc(F)cc6)c4=O)CCO5)cc3F)ccnc2cc1OCCN1CCC(F)(F)C1
3. CCOc1ccn(-c2ccc(F)cc2)c(=O)c1C(=O)Nc1ccc(Oc2ccnc(N)c2Cl)c(F)c1 [Positive control, reference compound]
4. COc1cc2c(Oc3ccc(NC(=O)c4c5c(cn(-c6ccc(F)cc6)c4=O)CCO5)cc3F)ccnc2cc1NC(=O)CCN1CCOCC1
5. Cn1ncc2cc(Oc3ccc(NC(=O)c4c5c(cn(-c6ccc(F)cc6)c4=O)CCO5)cc3F)c(-c3cn[nH]c3)cc21
6. COc1cc2c(Oc3ccc(NC(=O)c4c5c(cn(-c6ccc(F)cc6)c4=O)CCO5)cc3F)ccnc2cc1OCCN1CCC(F)(F)CC1
7. COc1cc2nccc(Oc3ccc(NC(=O)c4c5c(cn(-c6ccc(F)cc6)c4=O)CCO5)cc3F)c2cc1OC
8. COc1cc2c(Oc3ccc(NC(=O)c4c5c(cn(-c6ccc(F)cc6)c4=O)CCO5)cc3F)ccnc2cc1NCCCN1CCOCC1

1. 16.8
2. 82.2
3. 16.1
4. 87.5
5. 18.8
6. 81.4
7. 22.9
8. 94.4

Dear colleague, could you please provide cytotoxicity at 5 µM for the molecules listed below?
1. COc1cc2c(Oc3ccc(NC(=O)c4c5c(cn(-c6ccc(F)cc6)c4=O)CCO5)cc3F)ccnc2cc1NC(=O)CN1CCOCC1
2. COCCNCc1ccc(-c2cc3nccc(Oc4ccc(NC(=O)c5c6c(cn(-c7ccc(F)cc7)c5=O)CCO6)cc4F)c3s2)nc1 [Example 1, hydrochloride]
3. COc1cc2c(Oc3ccc(NC(=O)c4c5c(cn(-c6ccc(F)cc6)c4=O)CCO5)cc3F)ccnc2cc1OCCCN1CCOCC1

[10.2, 38.2, 28.6]

Hey, quick one: what's cytotoxicity at 5 µM for each of these?
1. COc1cc2c(Oc3ccc(NC(=O)c4c5c(cn(-c6ccc(F)cc6)c4=O)CCO5)cc3F)ccnc2cc1OCCN1CC(C#N)C1
2. COCCNCc1ccc(-c2cc3nccc(Oc4ccc(NC(=O)c5c6c(cn(-c7ccccc7)c5=O)CCO6)cc4F)c3s2)nc1 [Example 2, hydrochloride]
3. COc1cc2nccc(Oc3ccc(NC(=O)c4c5c(cn(-c6ccc(F)cc6)c4=O)CCO5)cc3F)c2cc1NC(C)=O

1. 67.8
2. 80.5
3. 16.1
